# SYSTEM_TESTED: angiotensin II receptor (Rattus norvegicus)
# Sequence (P25095 whole entry): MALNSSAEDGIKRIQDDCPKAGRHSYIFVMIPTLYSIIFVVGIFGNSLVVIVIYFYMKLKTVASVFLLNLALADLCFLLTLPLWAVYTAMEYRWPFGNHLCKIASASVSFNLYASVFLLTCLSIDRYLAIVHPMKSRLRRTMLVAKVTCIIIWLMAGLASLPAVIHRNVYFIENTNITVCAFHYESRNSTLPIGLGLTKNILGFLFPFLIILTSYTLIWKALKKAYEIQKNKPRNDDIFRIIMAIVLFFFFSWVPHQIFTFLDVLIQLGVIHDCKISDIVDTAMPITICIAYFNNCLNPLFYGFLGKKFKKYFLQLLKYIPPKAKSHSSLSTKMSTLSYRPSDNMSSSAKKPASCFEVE
RECORDED_ENDPOINT: pIC50
Friendly reminder that pIC50 comes from taking -log10 of the concentration in mol/L.

Before answering, review these 3 worked examples.
1. CCCCc1nc2ccncc2n1Cc1ccc(C(=O)O)cc1 5.57
2. CCCCc1nc2ncccc2n1Cc1ccc(-c2ccccc2C(=O)O)cc1 7.05
3. CCCCc1nc2ccc(C(=O)O)cc2n1Cc1ccc(C(=O)O)cc1 5.63

Kindly consider the entry below.
Incoming: Give the reported value of pIC50 for this record: "CCCCc1nc2cc3ccccc3cc2n1Cc1ccc(C(=O)O)cc1"
Outgoing: 5.64
